Experiment: Assessment of solubility (McIlvaine buffers, 24 h shake, UPLC-UV)
Type: physicochemical
Conditions: pH 6.8, aqueous buffer, kinetic from dmso stock
Observed Property: solubility at 24 h (µg/mL)

CCOc1c(C(=O)O)cnn1-c1cccc(-c2cccc(C)c2OCc2ccc3c(c2)CCN(CC2(C)COC2)C3)n1 [Compound 34] = 68
COc1c(C(=O)O)cnn1-c1cccc(-c2cccc(C)c2OCc2ccc3c(c2C)CCN(C[C@H]2CCCCO2)C3)n1 [Compound 199] = 92
COc1c(C(=O)O)cnn1-c1cccc(-c2ccc(C)cc2OCc2ccc3c(c2)CCN(C2CCOCC2)C3)n1 [Compound 98] = 99
COc1c(C(=O)O)cnn1-c1cccc(-c2cccc(C)c2OCc2ccc3c(c2C(F)(F)F)CCN(C2CCOCC2)C3)n1 [Compound 166] = 64
CCOc1c(C(=O)O)cnn1-c1cccc(-c2cccc(C)c2OCc2cc(C)c3c(c2)CCN(C2COC2)C3)n1 [Compound 174] = 91
CCOc1c(C(=O)O)cnn1-c1cccc(-c2cccc(C)c2OCc2ccc3c(c2C)CCN(C[C@@H]2CCCO2)CC3)n1 [Compound 235] = 88

1: CCOc1c(C(=O)O)cnn1-c1cccc(-c2cccc(C)c2OCc2ccc3c(c2C(F)(F)F)CCN(C2CCOCC2)C3)n1 [Compound 165]
2: COc1c(C(=O)O)cnn1-c1cccc(-c2cccc(C)c2OCc2ccc3c(c2)CCN([C@H]2CC[C@]4(CCCO4)CC2)C3)n1 [Compound 102]
Param pair: 1 , 2 . Output: the one whose solubility at 24 h is numerically greater. Select an item and report its label.
2

a: COc1c(C(=O)O)cnn1-c1cccc(-c2cccc(C)c2OCc2ccc3c(c2)OCCN(C2CCOCC2)C3)n1 [Compound 130]
b: CCOc1c(C(=O)O)cnn1-c1cccc(-c2cccc(C)c2OCc2ccc3c(c2)CCN(C2CC(C)OC(C)C2)C3)n1 (centres unmarked) [Compound 65]
Smaller solubility at 24 h value, a vs b ? Select an item and report its label.
b
